# System: MV-4-11 (human biphenotypic leukaemia)
# MEASUREMENT_DESCRIPTION: In vitro cytotoxicity test, MTT assay, 72 h incubation with compound
# Format: cell-based
# EXPERIMENTAL_SETUP: selectivity coefficient, BALB/3T3 versus MV-4-11
ENDPOINT: SI MV-4-11

Ask: Given "CC[C@@H](C(=O)[C@@H](C)[C@@H](O)[C@H](C)[C@@H]1O[C@@H]([C@@H](CC)C(=O)O)CC[C@@H]1C)[C@H]1O[C@]2(C=C[C@@H](NC(=O)CCl)[C@]3(CC[C@@](C)([C@H]4CC[C@](O)(CC)[C@H](C)O4)O3)O2)[C@H](C)C[C@@H]1C" , state its recorded SI MV-4-11.
Reply: 9.2

Ask: Thanks! And CC[C@@H](C(=O)[C@@H](C)[C@@H](O)[C@H](C)[C@@H]1O[C@@H]([C@@H](CC)C(=O)O)CC[C@@H]1C)[C@H]1O[C@]2(C=C[C@@H](N)[C@]3(CC[C@@](C)([C@H]4CC[C@](O)(CC)[C@H](C)O4)O3)O2)[C@H](C)C[C@@H]1C [(3), C20-aminosalinomycin, reference compound] ?
Reply: 11.2

Ask: Check CC[C@@H](C(=O)[C@@H](C)[C@@H](O)[C@H](C)[C@@H]1O[C@@H]([C@@H](CC)C(=O)O)CC[C@@H]1C)[C@H]1O[C@]2(C=C[C@H](NC(=O)c3ccccc3)[C@]3(CC[C@@](C)([C@H]4CC[C@](O)(CC)[C@H](C)O4)O3)O2)[C@H](C)C[C@@H]1C [(15 epi), reference compound] too.
Reply: 30

* * *

# Tested on: LoVo (drug-sensitive human colon cancer)
# MEASUREMENT_DESCRIPTION: In vitro cytotoxicity test, SRB assay, 72 h incubation with compound
# Type: cell-based
# EXPERIMENTAL_SETUP: selectivity coefficient, BALB/3T3 versus LoVo
ENDPOINT: SI LoVo
Give the value as a plain number.

Ask: Given the molecule CC[C@@H](C(=O)[C@@H](C)[C@@H](O)[C@H](C)[C@@H]1O[C@@H]([C@@H](CC)C(=O)O)CC[C@@H]1C)[C@H]1O[C@]2(C=C[C@@H](O)[C@]3(CC[C@@](C)([C@H]4CC[C@](O)(CC)[C@H](C)O4)O3)O2)[C@H](C)C[C@@H]1C [salinomycin] , what is its reported SI LoVo?
Reply: 9.9

Ask: Also, CC[C@@H](C(=O)[C@@H](C)[C@@H](O)[C@H](C)[C@@H]1O[C@@H]([C@@H](CC)C(=O)O)CC[C@@H]1C)[C@H]1O[C@]2(C=C[C@@H](N)[C@]3(CC[C@@](C)([C@H]4CC[C@](O)(CC)[C@H](C)O4)O3)O2)[C@H](C)C[C@@H]1C [(3), C20-aminosalinomycin, reference compound] please.
Reply: 2.0

Ask: Quick one: CC[C@@H](C(=O)[C@@H](C)[C@@H](O)[C@H](C)[C@@H]1O[C@@H]([C@@H](CC)C(=O)[O-])CC[C@@H]1C)[C@H]1O[C@]2(C=C[C@@H](NC(=O)NCCCCl)[C@]3(CC[C@@](C)([C@H]4CC[C@](O)(CC)[C@H](C)O4)O3)O2)[C@H](C)C[C@@H]1C.[Na+] [(25)]
Reply: 67.5

* * *

Provide the reported pIC50 of each item.
# System: Hs294T (human melanoma)
# MEASUREMENT_DESCRIPTION: In vitro cytotoxicity test, SRB assay, 72 h incubation with compound
# Assay type: cell-based
# EXPERIMENTAL_SETUP: Hs 294T; Hs294T human melanoma, SRB, 72 h
Keep in mind that pIC50 stands for -log10 of concentration in molar terms.

Ask: Tell me the measured pIC50 of "CC[C@@H](C(=O)[C@@H](C)[C@@H](O)[C@H](C)[C@@H]1O[C@@H]([C@@H](CC)C(=O)O)CC[C@@H]1C)[C@H]1O[C@]2(C=C[C@@H](NC(=O)OC)[C@]3(CC[C@@](C)([C@H]4CC[C@](O)(CC)[C@H](C)O4)O3)O2)[C@H](C)C[C@@H]1C" , please.
Reply: 7.70

Ask: Same question for "CCCCNC(=O)N[C@@H]1C=C[C@]2(O[C@H]([C@@H](CC)C(=O)[C@@H](C)[C@@H](O)[C@H](C)[C@@H]3O[C@@H]([C@@H](CC)C(=O)[O-])CC[C@@H]3C)[C@@H](C)C[C@H]2C)O[C@@]12CC[C@@](C)([C@H]1CC[C@](O)(CC)[C@H](C)O1)O2.[Na+]" please.
Reply: 7.40

* * *

# System: LoVo (drug-sensitive human colon cancer)
# MEASUREMENT_DESCRIPTION: In vitro cytotoxicity test, SRB assay, 72 h incubation with compound
# Assay type: cell-based
# EXPERIMENTAL_SETUP: selectivity coefficient, BALB/3T3 versus LoVo
# Protocol: In vitro cytotoxicity tests were performed according to the procedure described below. […] The solvent for further dilutions was a culture medium. The experiments were repeated at least 3 times.
Could you label it 1 if measured SI LoVo is 5 or higher, and -1 otherwise?

Ask: State whether the measured SI LoVo reaches 5, counting equality as reaching it, for "CC[C@@H](C(=O)[C@@H](C)[C@@H](O)[C@H](C)[C@@H]1O[C@@H]([C@@H](CC)C(=O)O)CC[C@@H]1C)[C@H]1O[C@]2(C=C[C@@H](NC(=O)C(C)C)[C@]3(CC[C@@](C)([C@H]4CC[C@](O)(CC)[C@H](C)O4)O3)O2)[C@H](C)C[C@@H]1C"
Reply: 1

Ask: Lookup "CCOC(=O)N[C@@H]1C=C[C@]2(O[C@H]([C@@H](CC)C(=O)[C@@H](C)[C@@H](O)[C@H](C)[C@@H]3O[C@@H]([C@@H](CC)C(=O)O)CC[C@@H]3C)[C@@H](C)C[C@H]2C)O[C@@]12CC[C@@](C)([C@H]1CC[C@](O)(CC)[C@H](C)O1)O2"
Reply: 1

Ask: Same thing, different molecule: "CC[C@@H](C(=O)[C@@H](C)[C@@H](O)[C@H](C)[C@@H]1O[C@@H]([C@@H](CC)C(=O)O)CC[C@@H]1C)[C@H]1O[C@]2(C=C[C@@H](NC(=O)CCl)[C@]3(CC[C@@](C)([C@H]4CC[C@](O)(CC)[C@H](C)O4)O3)O2)[C@H](C)C[C@@H]1C"
Reply: -1

Ask: Also check "C#CCOC(=O)N[C@@H]1C=C[C@]2(O[C@H]([C@@H](CC)C(=O)[C@@H](C)[C@@H](O)[C@H](C)[C@@H]3O[C@@H]([C@@H](CC)C(=O)O)CC[C@@H]3C)[C@@H](C)C[C@H]2C)O[C@@]12CC[C@@](C)([C@H]1CC[C@](O)(CC)[C@H](C)O1)O2"
Reply: -1

Ask: Repeat for the following molecule: "CC[C@@H](C(=O)[C@@H](C)[C@@H](O)[C@H](C)[C@@H]1O[C@@H]([C@@H](CC)C(=O)O)CC[C@@H]1C)[C@H]1O[C@]2(C=C[C@@H](NC(=O)OC)[C@]3(CC[C@@](C)([C@H]4CC[C@](O)(CC)[C@H](C)O4)O3)O2)[C@H](C)C[C@@H]1C"
Reply: -1

* * *

# MEASUREMENT_DESCRIPTION: In vitro cytotoxicity test on normal cells, SRB assay, 72 h incubation with compound
# Type: cell-based
# EXPERIMENTAL_SETUP: mouse, balb/3t3 cells, normal murine fibroblasts, read-out: IC50 BALB/3T3
I'd be grateful if you could share measured CC50 at 72 h for these entries.
Your answer should be a plain number; it is taken to be in nM.

Ask: Given "CC[C@@H](C(=O)[C@@H](C)[C@@H](O)[C@H](C)[C@@H]1O[C@@H]([C@@H](CC)C(=O)O)CC[C@@H]1C)[C@H]1O[C@]2(C=C[C@@H](NC(=O)CCl)[C@]3(CC[C@@](C)([C@H]4CC[C@](O)(CC)[C@H](C)O4)O3)O2)[C@H](C)C[C@@H]1C" , state its recorded CC50 at 72 h.
Reply: 2590

Ask: One more compound: "CC[C@@H](C(=O)[C@@H](C)[C@@H](O)[C@H](C)[C@@H]1O[C@@H]([C@@H](CC)C(=O)O)CC[C@@H]1C)[C@H]1O[C@]2(C=C[C@@H](O)[C@]3(CC[C@@](C)([C@H]4CC[C@](O)(CC)[C@H](C)O4)O3)O2)[C@H](C)C[C@@H]1C"
Reply: 2080

Ask: Next up: "CC[C@@H](C(=O)[C@@H](C)[C@@H](O)[C@H](C)[C@@H]1O[C@@H]([C@@H](CC)C(=O)O)CC[C@@H]1C)[C@H]1O[C@]2(C=C[C@@H](NC(=O)CCCCl)[C@]3(CC[C@@](C)([C@H]4CC[C@](O)(CC)[C@H](C)O4)O3)O2)[C@H](C)C[C@@H]1C"
Reply: 17100

Ask: Also "CCCNC(=O)N[C@@H]1C=C[C@]2(O[C@H]([C@@H](CC)C(=O)[C@@H](C)[C@@H](O)[C@H](C)[C@@H]3O[C@@H]([C@@H](CC)C(=O)[O-])CC[C@@H]3C)[C@@H](C)C[C@H]2C)O[C@@]12CC[C@@](C)([C@H]1CC[C@](O)(CC)[C@H](C)O1)O2.[Na+]" ?
Reply: 1540

Ask: Now this one: "CC[C@@H](C(=O)[C@@H](C)[C@@H](O)[C@H](C)[C@@H]1O[C@@H]([C@@H](CC)C(=O)O)CC[C@@H]1C)[C@H]1O[C@]2(C=C[C@@H](NC(=O)C(C)C)[C@]3(CC[C@@](C)([C@H]4CC[C@](O)(CC)[C@H](C)O4)O3)O2)[C@H](C)C[C@@H]1C"
Reply: 3520

Ask: Next compound up: "CC[C@@H](C(=O)[C@@H](C)[C@@H](O)[C@H](C)[C@@H]1O[C@@H]([C@@H](CC)C(=O)O)CC[C@@H]1C)[C@H]1O[C@]2(C=C[C@@H](NC(=O)OCC(C)(C)C)[C@]3(CC[C@@](C)([C@H]4CC[C@](O)(CC)[C@H](C)O4)O3)O2)[C@H](C)C[C@@H]1C"
Reply: 3240

Ask: What do you get for "CC[C@@H](C(=O)[C@@H](C)[C@@H](O)[C@H](C)[C@@H]1O[C@@H]([C@@H](CC)C(=O)O)CC[C@@H]1C)[C@H]1O[C@]2(C=C[C@@H](NC(=O)c3ccccc3)[C@]3(CC[C@@](C)([C@H]4CC[C@](O)(CC)[C@H](C)O4)O3)O2)[C@H](C)C[C@@H]1C" ?
Reply: 1630

Ask: Input "CC[C@@H](C(=O)[C@@H](C)[C@@H](O)[C@H](C)[C@@H]1O[C@@H]([C@@H](CC)C(=O)O)CC[C@@H]1C)[C@H]1O[C@]2(C=C[C@@H](NC(=O)OC)[C@]3(CC[C@@](C)([C@H]4CC[C@](O)(CC)[C@H](C)O4)O3)O2)[C@H](C)C[C@@H]1C"
Reply: 1760

Ask: Cool, now "C#CCOC(=O)N[C@@H]1C=C[C@]2(O[C@H]([C@@H](CC)C(=O)[C@@H](C)[C@@H](O)[C@H](C)[C@@H]3O[C@@H]([C@@H](CC)C(=O)O)CC[C@@H]3C)[C@@H](C)C[C@H]2C)O[C@@]12CC[C@@](C)([C@H]1CC[C@](O)(CC)[C@H](C)O1)O2"
Reply: 1320

Ask: Queued: CC[C@@H](C(=O)[C@@H](C)[C@@H](O)[C@H](C)[C@@H]1O[C@@H]([C@@H](CC)C(=O)O)CC[C@@H]1C)[C@H]1O[C@]2(C=C[C@@H](N)[C@]3(CC[C@@](C)([C@H]4CC[C@](O)(CC)[C@H](C)O4)O3)O2)[C@H](C)C[C@@H]1C [(3), C20-aminosalinomycin, reference compound]
Reply: 66400
